Listed here: items and their measured pEC50.
Assayed System: Muscarinic acetylcholine receptor M4 (Homo sapiens, UniProt P08173)
Sequence (P08173 whole entry): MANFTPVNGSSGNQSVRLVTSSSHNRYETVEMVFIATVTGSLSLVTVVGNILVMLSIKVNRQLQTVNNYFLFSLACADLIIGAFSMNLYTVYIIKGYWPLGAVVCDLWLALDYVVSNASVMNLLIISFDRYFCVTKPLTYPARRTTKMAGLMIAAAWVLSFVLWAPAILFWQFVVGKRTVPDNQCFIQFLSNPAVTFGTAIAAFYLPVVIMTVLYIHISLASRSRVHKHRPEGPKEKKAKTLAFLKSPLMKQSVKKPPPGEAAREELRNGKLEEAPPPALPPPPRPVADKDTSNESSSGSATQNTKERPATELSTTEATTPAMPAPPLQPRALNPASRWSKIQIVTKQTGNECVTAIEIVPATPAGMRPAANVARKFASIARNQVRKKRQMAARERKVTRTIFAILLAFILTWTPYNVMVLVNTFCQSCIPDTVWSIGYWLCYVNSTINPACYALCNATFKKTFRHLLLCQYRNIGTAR
Assay Overview: Agonist activity at human M4 receptor
Format: functional
As a rule, pEC50 stands for the negative log10 of the concentration, concentration in M.

{"Smiles Entry": "CCNC(=O)c1sc2nc(OC)c(Cl)c(C)c2c1N", "pEC50": 6.70}

molecule `COc1nc2sc(C(=O)NC3CC3)c(N)c2c(C)c1Cl` , pEC50 observed: 7.41

###

Assayed System: Muscarinic acetylcholine receptor M4 (Homo sapiens)
Assay Overview: Agonist activity at human recombinant M4 muscarinic acetylcholine receptor assessed as calcium mobilization by FLIPR analysis
Format: functional
Quantity Kind: pEC50
As a rule, pEC50 stands for the negative log10 of the concentration, concentration in M.

// known answers, use as guide
{"Smiles Entry": "Cc1cc(C)c2c(N)c(C(=O)NCc3ccc4c(c3)OCO4)sc2n1", "Assayed System": "Muscarinic acetylcholine receptor M4 (Homo sapiens)", "pEC50": 6.39}
{"Smiles Entry": "Cc1nc2sc(C(=O)NCc3ccncc3)c(N)c2c(C)c1Cl", "Assayed System": "Muscarinic acetylcholine receptor M4 (Homo sapiens)", "pEC50": 7.11}
{"Smiles Entry": "Cc1cc(C)c2c(N)c(C(=O)NCc3ccco3)sc2n1", "Assayed System": "Muscarinic acetylcholine receptor M4 (Homo sapiens)", "pEC50": 6.40}
{"Smiles Entry": "Cc1cc(C)c2c(N)c(C(=O)NCc3ccccc3)sc2n1", "Assayed System": "Muscarinic acetylcholine receptor M4 (Homo sapiens)", "pEC50": 8.89}
{"Smiles Entry": "Cc1nnc2sc(C(=O)NCc3ccc(-c4ccnc(F)c4)cc3)c(N)c2c1C", "Assayed System": "Muscarinic acetylcholine receptor M4 (Homo sapiens)", "pEC50": 7.04}

Okay, next one:
compound `Cc1cc(C)c2c(N)c(C(=O)NCc3ccc(Cl)cc3)sc2n1` , pEC50 observed: 6.40

Origin of values: ChEMBL document CHEMBL6109174
